target: Bromodomain-containing protein 9 (Homo sapiens, UniProt Q9H8M2)
Sequence (Q9H8M2 whole entry): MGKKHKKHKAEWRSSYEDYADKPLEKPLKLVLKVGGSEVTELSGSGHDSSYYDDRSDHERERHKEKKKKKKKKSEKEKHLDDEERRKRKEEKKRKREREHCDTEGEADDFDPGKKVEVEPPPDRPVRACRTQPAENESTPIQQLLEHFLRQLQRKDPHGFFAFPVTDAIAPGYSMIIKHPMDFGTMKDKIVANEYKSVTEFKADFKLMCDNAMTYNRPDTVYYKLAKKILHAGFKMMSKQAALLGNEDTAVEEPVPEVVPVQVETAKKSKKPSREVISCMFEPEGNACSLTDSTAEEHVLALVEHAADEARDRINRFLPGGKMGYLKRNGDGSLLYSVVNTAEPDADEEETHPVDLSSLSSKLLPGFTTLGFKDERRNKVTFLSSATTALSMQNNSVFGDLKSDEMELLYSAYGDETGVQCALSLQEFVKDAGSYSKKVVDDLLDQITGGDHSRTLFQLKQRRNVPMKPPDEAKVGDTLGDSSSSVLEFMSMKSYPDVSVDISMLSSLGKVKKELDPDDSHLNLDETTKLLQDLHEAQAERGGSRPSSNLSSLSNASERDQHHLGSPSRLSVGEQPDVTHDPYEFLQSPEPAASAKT
assayMethodText: Inhibition of BRD9 (unknown origin) using H4 peptide as substrate preincubated for 15 mins followed by substrate addition and measured after 60 mins by Alphascreen assay
Field: IC50. Provide a value for each of the compounds that follow.
Give a bare numeral; the unit nM is implied.

# get_value(readout='IC50', item= Cn1cc(-c2ccc(C(=O)N3CCOCC3)c(Cl)c2)n2cncc2c1=O )
1500

Return reported IC50; argument: C/C=C/Cn1cc(-c2ccc(C(=O)NC3CCS(=O)(=O)CC3)c(Cl)c2)n2cncc2c1=O
480

# IC50 lookup, item C/C=C/Cn1cc(-c2ccc(C(=O)N3CCCC3)c(Cl)c2)n2cncc2c1=O
438

Can you share its IC50? I mean this compound: C/C=C/Cn1cc(-c2ccc(C(=O)N3CCN(S(C)(=O)=O)CC3)c(F)c2)n2cncc2c1=O
652

Record request: IC50 value, item C/C=C/Cn1cc(-c2ccc(C(=O)N3CCN(C)CC3)c(Cl)c2)n2cncc2c1=O
557

I'd like to know its IC50. The compound in question is Cn1cc(-c2ccccc2)n2cncc2c1=O
7210

I would be grateful if you could share the reported IC50 for CCCCn1cc(-c2ccc(C(=O)N3CCOCC3)c(Cl)c2)n2cncc2c1=O .
827

Return reported IC50; argument: CCCCn1cc(-c2ccc(C(=O)N3CCNCC3)c(Cl)c2)n2cncc2c1=O
730

Value lookup for IC50; key = C/C=C/Cn1cc(-c2ccc(C(=O)N3CCN(S(C)(=O)=O)CC3)c(Cl)c2)n2cncc2c1=O
103

IC50 for CCn1cc(-c2ccc(C(=O)N3CCNCC3)c(Cl)c2)n2cncc2c1=O ?
802

So what's the measured IC50 for this one? C/C=C/Cn1cc(-c2ccc(C(=O)N3CCOCC3)cc2Cl)n2cncc2c1=O
763
